- Assay Text: Partition of cannabinoids between degummed cannabis oil miscella and water/ethanol/base extraction solvent in a fiber conduit contactor
- Type: physicochemical
- Set-up: scale not given here
- Condition Notes: Base NaHCO3; H2O/EtOH/Base (wt %) 67.8/29.7/2.4; lower = preference for extraction, higher = remains in neutral oil
Mark f for Partition coefficient values under 0.5, and t for everything at or above.

Observe how each entry below is paired with its result.
molecule=C=C(C)[C@@H]1CCC(C)=C[C@H]1c1c(O)cc(CCCCC)c(C(=O)O)c1O category=f
molecule=CCCCCc1cc(O)c(C/C=C(\C)CCC=C(C)C)c(O)c1C(=O)O category=f
molecule="CCCCCc1cc2c(c(O)c1C(=O)O)C=CC(C)(CCC=C(C)C)O2 (centres unmarked)" category=t
molecule="CCCCCc1cc(O)c2c(c1)OC(C)(CCC=C(C)C)C=C2 (centres unmarked)" category=t
molecule="CCCCCc1cc(O)c2c(c1)OC(C)(C)[C@@H]1CCC(C)=C[C@@H]21 [THC, tetrahydrocannabinol, reference compound]" category=t
molecule="CCCCCc1cc2c(c(O)c1C(=O)O)[C@@H]1C=C(C)CC[C@H]1C(C)(C)O2 [THCA, tetrahydrocannabinolic acid]" category=t

Is Partition coefficient for C=C(C)[C@@H]1CCC(C)=C[C@H]1c1c(O)cc(CCCCC)cc1O [CBD, cannabidiol, reference compound] at or above 0.5?
f

Is Partition coefficient for CCCCCc1cc(O)c(C/C=C(\C)CCC=C(C)C)c(O)c1 at or above 0.5?
f

###

Would you kindly list Partition coefficient for each of these molecules?
- Assay Text: Partition of cannabinoids between degummed cannabis oil miscella and water/ethanol/base extraction solvent in a fiber conduit contactor
- Assay type: physicochemical
- Set-up: scale not given here
- Condition Notes: Base NaHCO3; H2O/EtOH/Base (wt %) 81.2/16.3/2.5
Answers are plain numbers.

molecule="CCCCCc1cc(O)c2c(c1)OC(C)(C)[C@@H]1CCC(C)=C[C@@H]21 [THC, tetrahydrocannabinol, reference compound]" readout_value=1.28
molecule="C=C(C)[C@@H]1CCC(C)=C[C@H]1c1c(O)cc(CCCCC)cc1O [CBD, cannabidiol, reference compound]" readout_value=1.25
molecule=CCCCCc1cc(O)c(C/C=C(\C)CCC=C(C)C)c(O)c1C(=O)O readout_value=1.19
molecule="CCCCCc1cc2c(c(O)c1C(=O)O)C=CC(C)(CCC=C(C)C)O2 (stereo not shown)" readout_value=1.24
molecule="CCCCCc1cc(O)c2c(c1)OC(C)(CCC=C(C)C)C=C2 (stereo not shown)" readout_value=1.33

For each of the molecules below, state Partition coefficient.
1. C=C(C)[C@@H]1CCC(C)=C[C@H]1c1c(O)cc(CCCCC)c(C(=O)O)c1O
2. CCCCCc1cc2c(c(O)c1C(=O)O)[C@@H]1C=C(C)CC[C@H]1C(C)(C)O2 [THCA, tetrahydrocannabinolic acid]

1. 1.05
2. 1.16

###

- Assay Text: Partition of cannabinoids between degummed cannabis oil miscella and water/ethanol/base extraction solvent in a fiber conduit contactor
- Type: physicochemical
- Design: scale not given here
- Condition Notes: Base K2CO3; H2O/EtOH/Base (wt %) 77.9/19.5/2.6
Threshold 0.1: Partition coefficient strictly smaller gives yes (1), otherwise no (0).

Observe how each entry below is paired with its result.
compound=CCCCCc1cc(O)c(C/C=C(\C)CCC=C(C)C)c(O)c1 category="yes (1)"
compound=C=C(C)[C@@H]1CCC(C)=C[C@H]1c1c(O)cc(CCCCC)c(C(=O)O)c1O category="yes (1)"
compound="CCCCCc1cc2c(c(O)c1C(=O)O)[C@@H]1C=C(C)CC[C@H]1C(C)(C)O2 [THCA, tetrahydrocannabinolic acid]" category="yes (1)"
compound="CCCCCc1cc(O)c2c(c1)OC(C)(CCC=C(C)C)C=C2 (centres unmarked)" category="no (0)"
compound="CCCCCc1cc2c(c(O)c1C(=O)O)C=CC(C)(CCC=C(C)C)O2 (centres unmarked)" category="yes (1)"
compound="C=C(C)[C@@H]1CCC(C)=C[C@H]1c1c(O)cc(CCCCC)cc1O [CBD, cannabidiol, reference compound]" category="no (0)"

Is it true that Partition coefficient reported for CCCCCc1cc(O)c(C/C=C(\C)CCC=C(C)C)c(O)c1C(=O)O is less than 0.1?
yes (1)
